Test system: bovine aortic vascular endothelial cells
Assay: Lumen formation test (cell shrinkage), cell pattern sandwiched between substrate and GFR Matrigel (configuration of FIG. 3)
Type: cell-based
Design: key: ∘: Large inhibition effect; Δ: Small inhibition effect; x: No inhibition effect
Conditions: inhibitor previously added; shrinkage of multiple cells observed, GFR Matrigel
Property Name: Inhibition effect (inhibiting lumen formation)

Molecule	Target System	Result
CN(C)c1ccc(O)c2c1C[C@H]1C[C@H]3[C@H](N(C)C)C(O)=C(C(N)=O)C(=O)[C@@]3(O)C(O)=C1C2=O	bovine aortic vascular endothelial cells	x
N=C(N)NC(=O)c1nc(Cl)c(N)nc1N [Amiloride]	bovine aortic vascular endothelial cells	x
O=c1cc(N2CCOCC2)oc2c(-c3ccccc3)cccc12	bovine aortic vascular endothelial cells	Δ
C[C@@H](N)[C@H]1CC[C@H](C(=O)Nc2ccncc2)CC1	bovine aortic vascular endothelial cells	x
Cc1ccc(C(=O)Nc2ccc(S(=O)(=O)O)c3cc(S(=O)(=O)O)cc(S(=O)(=O)O)c23)cc1NC(=O)c1cccc(NC(=O)Nc2cccc(C(=O)Nc3cc(C(=O)Nc4ccc(S(=O)(=O)O)c5cc(S(=O)(=O)O)cc(S(=O)(=O)O)c45)ccc3C)c2)c1	bovine aortic vascular endothelial cells	x
CC(C)(C)n1nc(-c2ccc(Cl)cc2)c2c(N)ncnc21	bovine aortic vascular endothelial cells	∘
